Tested System: Histone-lysine N-methyltransferase EHMT2 (Homo sapiens)
Sequence (Q96KQ7 whole entry): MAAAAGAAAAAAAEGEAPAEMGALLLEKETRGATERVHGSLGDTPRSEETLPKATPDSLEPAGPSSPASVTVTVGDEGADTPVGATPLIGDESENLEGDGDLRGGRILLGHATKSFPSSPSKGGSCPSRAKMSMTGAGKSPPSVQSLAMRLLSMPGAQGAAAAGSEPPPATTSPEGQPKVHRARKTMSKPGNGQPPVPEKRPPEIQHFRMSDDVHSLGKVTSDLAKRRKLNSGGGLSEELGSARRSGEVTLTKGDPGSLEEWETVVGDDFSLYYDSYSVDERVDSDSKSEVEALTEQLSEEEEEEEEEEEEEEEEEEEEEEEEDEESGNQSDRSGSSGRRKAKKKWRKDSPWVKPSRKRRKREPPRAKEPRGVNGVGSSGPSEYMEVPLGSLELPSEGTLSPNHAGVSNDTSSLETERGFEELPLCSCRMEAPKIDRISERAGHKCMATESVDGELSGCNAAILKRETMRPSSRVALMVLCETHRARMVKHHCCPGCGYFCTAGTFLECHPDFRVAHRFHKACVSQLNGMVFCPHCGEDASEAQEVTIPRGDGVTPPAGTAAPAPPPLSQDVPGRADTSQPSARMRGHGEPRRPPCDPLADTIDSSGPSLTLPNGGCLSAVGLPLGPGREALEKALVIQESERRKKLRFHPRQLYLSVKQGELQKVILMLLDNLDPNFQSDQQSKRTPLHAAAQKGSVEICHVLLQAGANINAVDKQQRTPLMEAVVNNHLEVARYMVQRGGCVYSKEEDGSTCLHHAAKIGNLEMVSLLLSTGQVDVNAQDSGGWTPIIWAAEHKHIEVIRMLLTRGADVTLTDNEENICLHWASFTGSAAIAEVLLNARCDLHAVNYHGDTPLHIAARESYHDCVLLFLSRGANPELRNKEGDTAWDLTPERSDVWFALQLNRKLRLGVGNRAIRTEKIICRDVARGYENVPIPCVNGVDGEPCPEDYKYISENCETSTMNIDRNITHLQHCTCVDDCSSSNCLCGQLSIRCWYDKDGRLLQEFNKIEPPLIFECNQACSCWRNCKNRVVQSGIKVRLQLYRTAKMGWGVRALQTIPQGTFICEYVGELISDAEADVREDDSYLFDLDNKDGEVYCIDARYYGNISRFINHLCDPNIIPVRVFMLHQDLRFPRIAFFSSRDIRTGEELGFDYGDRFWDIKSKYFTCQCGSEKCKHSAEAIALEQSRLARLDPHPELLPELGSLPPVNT
Experiment: Inhibition of G9a (685 to 1000) (unknown origin) expressed in Escherichia coli BL21 assessed as reduction of H3K9me2 level by DELFIA assay
Test Readout: IC50

Inquiry: Recorded IC50 of COc1ccc(C(=O)Oc2ccc(CCn3c(NC(=O)c4ccc(C(F)(F)F)cc4)nc4cc(C(=O)O)ccc43)cc2)cc1 , please.
Reply text: 5 µM

###

Tested System: UniProtKB Q96KQ7
Experiment: Inhibition of G9a (unknown origin)
Test Readout: pIC50
# log scale: pIC50 equals minus log10 of the concentration in mol/L

Inquiry: Look up pIC50 for this molecule: CN1C(=O)[C@@]23C[C@]4([C@]56C[C@@]78SS[C@@](CO)(C(=O)N7[C@H]5Nc5ccccc56)N(C)C8=O)c5ccccc5N[C@@H]4N2C(=O)[C@]1(CO)SS3
Reply text: 5.60

###

Tested System: Protein arginine N-methyltransferase 1 (Homo sapiens)
Sequence (Q99873 whole entry): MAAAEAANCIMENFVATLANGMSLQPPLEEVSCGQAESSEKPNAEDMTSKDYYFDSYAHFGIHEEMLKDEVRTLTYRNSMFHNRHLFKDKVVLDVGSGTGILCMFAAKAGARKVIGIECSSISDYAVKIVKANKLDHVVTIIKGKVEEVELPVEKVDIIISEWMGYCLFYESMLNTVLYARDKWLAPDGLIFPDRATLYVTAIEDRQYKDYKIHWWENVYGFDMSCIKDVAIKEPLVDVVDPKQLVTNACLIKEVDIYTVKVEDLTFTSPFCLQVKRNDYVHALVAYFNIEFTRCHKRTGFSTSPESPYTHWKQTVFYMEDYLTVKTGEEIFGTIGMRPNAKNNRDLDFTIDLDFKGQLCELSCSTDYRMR
Experiment: Inhibition of recombinant human GST-tagged PRMT1 assessed as inhibition of histone methylation
Test Readout: IC50 (µM)
The response must be a number in µM with no trailing unit.

Inquiry: # IC50 lookup, item COc1ccc(/N=N/c2c(S(=O)(=O)O)cc3cc(Cc4nc(Cl)nc(Cl)n4)ccc3c2O)cc1
Reply text: 4

Taken from ChEMBL document CHEMBL3390830.
